Taken from patent US8436159B2.

# TARGET OR TEST SYSTEM: maize (Zea mays) class I EPSPS variant TIPG (T102I, P106G), pMON42480 (Zea mays, UniProt O24566, P106G/T102I)
# Construct: pMON42480
# Sequence (O24566 1-444 T102I/P106G): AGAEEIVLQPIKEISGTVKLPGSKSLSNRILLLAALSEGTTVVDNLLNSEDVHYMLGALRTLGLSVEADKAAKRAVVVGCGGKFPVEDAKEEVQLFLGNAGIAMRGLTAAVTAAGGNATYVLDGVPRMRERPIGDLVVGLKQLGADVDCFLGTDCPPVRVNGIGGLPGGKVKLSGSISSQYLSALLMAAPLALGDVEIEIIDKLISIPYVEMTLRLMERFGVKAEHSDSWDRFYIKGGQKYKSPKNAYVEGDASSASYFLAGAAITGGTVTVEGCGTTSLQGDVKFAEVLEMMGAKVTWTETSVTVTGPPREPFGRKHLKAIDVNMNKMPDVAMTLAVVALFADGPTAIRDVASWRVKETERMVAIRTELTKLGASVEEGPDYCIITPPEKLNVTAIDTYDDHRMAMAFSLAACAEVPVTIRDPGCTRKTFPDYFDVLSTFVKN
# PROTOCOL SUMMARY: EPSPS steady-state kinetics, TIPG variant
# Excerpt: The double variants of the present invention were made using pMON58452 (FIG. 5) as the template. This pMON58452 EPSPS gene template contains the maize EPSPS double variant T102I, P106T (TIPT) that was constructed by mutagenesis of pMON70467 with the mutagenesis primers mEmut-9-U and mEmut-10-L. The various mutagenesis primer sequences were designed and then were synthesized by Invitrogen Corp., Custom Primers and used in combination in a PCR to create the variant EPSPS coding sequences. […]
RESULT TYPE: pKi
When answering, recall that pKi equals minus log10 of the concentration in mol/L, and write that number alone.

Short answer for O=C(O)CNCP(=O)(O)O [glyphosate, N-phosphonomethylglycine] : pKi was 4.41

====

# TARGET OR TEST SYSTEM: maize (Zea mays) class I EPSPS variant TIPC (T102I, P106C), pMON42485 (Zea mays, UniProt O24566, P106C/T102I)
# Sequence (O24566 1-444 T102I/P106C): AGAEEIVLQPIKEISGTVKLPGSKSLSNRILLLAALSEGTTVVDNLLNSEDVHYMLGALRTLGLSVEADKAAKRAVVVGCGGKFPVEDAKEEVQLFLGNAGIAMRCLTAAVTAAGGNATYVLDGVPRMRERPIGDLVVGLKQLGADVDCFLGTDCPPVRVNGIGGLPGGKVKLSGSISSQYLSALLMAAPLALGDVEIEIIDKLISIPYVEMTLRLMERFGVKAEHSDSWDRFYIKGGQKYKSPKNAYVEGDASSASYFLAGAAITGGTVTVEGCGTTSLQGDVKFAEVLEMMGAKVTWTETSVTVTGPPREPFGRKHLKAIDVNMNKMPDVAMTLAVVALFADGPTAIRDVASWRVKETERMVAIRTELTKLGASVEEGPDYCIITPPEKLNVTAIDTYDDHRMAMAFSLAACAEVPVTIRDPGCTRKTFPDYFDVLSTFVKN
# PROTOCOL SUMMARY: EPSPS steady-state kinetics, TIPC variant
RESULT TYPE: Ki
Answer shape: numeric part, then the unit.

The recorded Ki for O=C(O)CNCP(=O)(O)O [glyphosate, N-phosphonomethylglycine] is 818 µM

====

# TARGET OR TEST SYSTEM: maize (Zea mays) class I EPSPS variant TIPV (T102I, P106V), pMON42482 (Zea mays, UniProt O24566, P106V/T102I)
# Construct: pMON42482
# Sequence (O24566 1-444 T102I/P106V): as the sequence (O24566 1-444 T102I/P106G) above, with G106V counted along it
# PROTOCOL SUMMARY: EPSPS steady-state kinetics, TIPV variant
RESULT TYPE: Ki (µM)
Give just the number in µM; leave the unit off.

O=C(O)CNCP(=O)(O)O [glyphosate, N-phosphonomethylglycine] has a reported Ki of 1600
